# PROTOCOL TEXT: Pharmacokinetics in the rat (plasma, oral and intravenous)
# Type: in vivo, male SD rats
# PROTOCOL CONDITIONS: male, SD, rat; intravenous, 1 mg/kg, plasma
OUTCOME MEASURE: AUC(0-t) (ng·h/mL)
Enter your answer as a number in ng·h/mL; do not include the unit.

Prompt: Please indicate AUC(0-t) recorded for Cc1c(-c2cnc(N)c(C#N)c2)c(F)cc2c(=O)c(C(=O)O)cn(C3CC3)c12 [OPS-2071]
Response: 672

* * *

# PROTOCOL TEXT: Pharmacokinetics in the hamster (cecal contents)
# Assay type: in vivo, male Syrian hamsters
# PROTOCOL CONDITIONS: male, Syrian, 2 mg/kg oral, reached at 4 h postdose, read-out: maximum concentration (Cmax) in the cecal contents
# Protocol: OPS-2071 was orally administered at 2 mg/kg to male Syrian hamsters, and the cecal contents were collected 0.5, 1, 2, 4, 8, 24, 48, and 72 h postdose (n = 5 for each time point). After homogenizing with saline and treatment using acetonitrile-formic acid (100:1 [vol/vol]), the OPS-2071 concentration in cecal contents was determined using a validated liquid chromatography-electrospray ionization-tandem mass spectrometry (LC-ESI-MS/MS) method. […]
OUTCOME MEASURE: Cmax (ng/g)
Enter your answer as a number in ng/g; do not include the unit.

Prompt: Please indicate Cmax recorded for Cc1c(-c2cnc(N)c(C#N)c2)c(F)cc2c(=O)c(C(=O)O)cn(C3CC3)c12
Response: 43000

* * *

# PROTOCOL TEXT: Pharmacokinetics in the rat (plasma, oral and intravenous)
# Format: in vivo, male SD rats
# PROTOCOL CONDITIONS: male, SD, rat; oral, 1 mg/kg, plasma
OUTCOME MEASURE: AUC(0-t)

Prompt: Please indicate AUC(0-t) recorded for Cc1c(-c2cnc(N)c(C#N)c2)c(F)cc2c(=O)c(C(=O)O)cn(C3CC3)c12
Response: 19.5 ng·h/mL

* * *

# PROTOCOL TEXT: Pharmacokinetics in the hamster (cecal contents)
# Type: in vivo, male Syrian hamsters
# PROTOCOL CONDITIONS: male, Syrian, 2 mg/kg oral, 24 h, read-out: concentration in the cecal contents at 24 h postdose
OUTCOME MEASURE: concentration at 24 h (ng/g)
Enter your answer as a number in ng/g; do not include the unit.

Prompt: Please indicate concentration at 24 h recorded for Cc1c(-c2cnc(N)c(C#N)c2)c(F)cc2c(=O)c(C(=O)O)cn(C3CC3)c12
Response: 1840

These data points were gathered from paper PMC8097418.
